Consider the following compounds and their measured growth inhibition readings.
- ASSAY: NCI Yeast Anticancer Drug Screen. Data for the mlh1 rad18 strain (AID 175)
- MEASUREMENT_CONDITIONS: S. cerevisiae mlh1 rad18 strain growth inhibition; at 50.0 µM; stronger effect = higher value
The panel holds about 79,000 compounds, 15% with a hit somewhere; the sample as a whole holds those more often.
Value expressed in %; do not type the unit.

CC(C)N1C(=O)c2cccc3c(Br)ccc(c23)C1=O :: 98.5

Please fill in: growth inhibition reported for `CCCCNc1ccccc1` = 42.5

Please fill in: growth inhibition reported for CCOC(=O)OC1CC2CC(OC(=O)OCC)c3cccc(Br)c3C2c2ccccc21 (stereo not drawn) = 33.7

###

- ASSAY: NCI Yeast Anticancer Drug Screen. Data for the sgs1 mgt1 strain (AID 161);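 also: 0% = growth of cultures given vehicle only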
- MEASUREMENT_CONDITIONS: S. cerevisiae sgs1 mgt1 strain, at 50.0 µM, stronger effect = higher value
- Description: Growth inhibition of yeast strains with defined genetic alterations is measured as a screen for potential anti-cancer activity. Selected strains with alterations in DNA damage repair or cell cycle control were exposed to compounds and growth inhibition was measured relative to vehicle treated controls. The strain used in this assay is sgs1 mgt1
About 79,000 compounds went through this panel and 15% of them were active in at least one assay; those are over-represented in the sample as a whole.
Consider the following compounds and their measured growth inhibition readings.
Value expressed in %; do not type the unit.

Cc1cc(Nc2ccc(S(=O)(=O)O)c3cc(S(=O)(=O)O)cc(S(=O)(=O)O)c23)c2ccccc2n1 :: 3.2
N#CCCC(=O)c1ccccc1 :: -1.15
N#CCC(=O)O :: -4.3

Please fill in: growth inhibition reported for `O=C(NCc1ccccc1)Nc1cccc2c(NC(=O)NCc3ccccc3)cccc12` = -26.9

Please fill in: growth inhibition reported for `c1ccc(OC23CC4CC(CC(C4)C2)C3)cc1` = -5.2

Please fill in: growth inhibition reported for `O=C1Oc2ccccc2C(=O)Oc2ccccc2C(=O)Oc2ccccc2C(=O)Oc2ccccc21` = -24.2

Please fill in: growth inhibition reported for `Cn1cnc(=O)c2n[nH]nc21` = -1.1

Please fill in: growth inhibition reported for O=S1(=O)OCCC1C(O)(c1ccccc1)c1ccccc1 (centres undefined) = 6.8

Please fill in: growth inhibition reported for `O=C(O)c1ccccc1NCn1c(=S)sc2ccccc21` = 60.6

###

- ASSAY: NCI Yeast Anticancer Drug Screen. Data for the cln2 rad14 strain (AID 165);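 also: 0% = growth equal to vehicle treated cultures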
- MEASUREMENT_CONDITIONS: S. cerevisiae cln2 rad14 strain, at 50.0 µM, stronger effect = higher value
Compounds without any hit were thinned out: in the full panel of roughly 79,000, 15% have a hit.
MEASUREMENT_TYPE: growth inhibition (%)
Value expressed in %; do not type the unit.

Some compounds with known growth inhibition results, for comparison:
CC1(C2(C)Nc3ccccc3O2)Nc2ccccc2O1 (stereo not drawn) :: -36.8
Cc1ccccc1NC(=O)C(C)C :: 11.3

Pending compound:
Please fill in: growth inhibition reported for `Cc1cc(C(C)(C)C)cc(C)c1[N+](=O)[O-]` = 8.2

###

- ASSAY: NCI Yeast Anticancer Drug Screen. Data for the rad50 strain (AID 155);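 also: 0% = growth of vehicle-only cultures of the same strain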
- MEASUREMENT_CONDITIONS: S. cerevisiae rad50 strain growth inhibition; at 50.0 µM; stronger effect = higher value
This is part of a sample that, as a whole, favours compounds with a hit. Of some 79,000 tested, about 15% had one in any assay.
Classify as follows. Reported growth inhibition greater than or equal to 10%: true (1). Reported growth inhibition below: false (0).

See these solved cases before continuing.
CCOC(=O)c1cc(NC(C)=O)cn1C :: false (0)
COc1ccc(/C=N/NC(=O)c2ccccc2NC(=O)c2ccccc2Cl)cc1 :: true (1)
C[N+](C)(CCCn1ccnc1[N+](=O)[O-])CCCn1ccnc1[N+](=O)[O-] :: false (0)
CCOC(=O)NC(C)=O :: false (0)
ONc1ncnc2nc[nH]c12 :: false (0)
Cc1[nH]n(-c2ncc(C#N)c(=O)[nH]2)c(=O)c1CCO :: false (0)
Cc1ccc(C(=O)Oc2ccccc2)cc1 :: false (0)
CC(=O)CC(C)(C)NNS(=O)(=O)c1ccc(C)cc1 :: false (0)

Task: Confirm if growth inhibition reported for the molecule O=C1C2=C(Nc3cc([N+](=O)[O-])ccc3N2)OC1c1ccc2c(c1)OCO2 (stereo unspecified) is 10% or above.
Result: false (0)

Task: Confirm if growth inhibition reported for the molecule COCC12CC(CC1=O)C1C2ON2c3ccccc3C(=O)C12c1ccccc1 (stereo unspecified) is 10% or above.
Result: true (1)

###

- ASSAY: NCI Yeast Anticancer Drug Screen. Data for the bub3 strain (AID 167)
- MEASUREMENT_CONDITIONS: S. cerevisiae bub3 mutant strain, at 50.0 µM
The panel holds about 79,000 compounds, 15% with a hit somewhere; the sample as a whole holds those more often. Activity calls are given as the source filed them. Cut-off read from the data, not from the text of the source: active = growth inhibition above about 70%; inactive = the rest.
Please state which outcome applies, choosing from active, inactive

COc1ccc(C2C3=C(CCCC3=O)OC3=C2C(=O)CCC3)cc1 :: inactive
C=C1C(=O)C23C(O)CC4C(C)(C)[C@@H](OC(C)=O)CCC4(C)[C@]2(O)CCC1[C@@H]3O (some centres not stated) :: active
C1CC[N+]2(CC1)CCCCC2 :: inactive
CC1CC(C[N+](=O)[O-])CC2(C1)OCCO2 (configuration not stated) :: inactive
CC12CCC3c4ccc(Cc5ccc([N+](=O)[O-])cc5)cc4CCC3C1CCC2=O (configuration not stated) :: inactive

Task: Dear colleague, could you share the recorded outcome for COC1(OC)CCC2=C(C)C(=O)CCC2(CO)C1 (configuration not stated) when you have a moment?
Result: inactive

Task: Dear colleague, could you share the recorded outcome for `Cc1ccc(N=C=O)cc1N1C(=O)N(c2cc(N=C=O)ccc2C)C1=O` when you have a moment?
Result: inactive

###

Consider the following molecules and their measured growth inhibition readings.
- ASSAY: NCI Yeast Anticancer Drug Screen. Data for the mlh1 rad18 strain (AID 175)
- MEASUREMENT_CONDITIONS: S. cerevisiae mlh1 rad18 strain growth inhibition; at 50.0 µM; stronger effect = higher value
This is part of a sample that, as a whole, favours compounds with a hit. Of some 79,000 tested, about 15% had one in any assay.
Value expressed in %; do not type the unit.

CCOc1ccccc1/C=N/NS(=O)(=O)c1ccc([N+](=O)[O-])cc1 :: -14.2

Please fill in: growth inhibition reported for `c1nc2c([nH]1)CNCC2` = 5

Please fill in: growth inhibition reported for `O=NNc1nc2ncccc2cc1-c1ccccc1Cl` = -8.2

Please fill in: growth inhibition reported for `O=S(=O)(Nc1c(Cl)c(Cl)c(NS(=O)(=O)c2ccccc2)c(Cl)c1Cl)c1ccccc1` = 15.5

Please fill in: growth inhibition reported for C/C(=N\NC(N)=O)C1CCCc2ccccc21 (configuration not stated) = 10.2

Please fill in: growth inhibition reported for O=C(O)CC(c1ccccc1Cl)C(CC(=O)O)c1ccccc1Cl (configuration not stated) = 3.4

###

- ASSAY: NCI Yeast Anticancer Drug Screen. Data for the sgs1 mgt1 strain (AID 161);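 also: 0% = growth of cultures given vehicle only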
- MEASUREMENT_CONDITIONS: S. cerevisiae sgs1 mgt1 strain, at 50.0 µM, stronger effect = higher value
Compounds without any hit were thinned out: in the full panel of roughly 79,000, 15% have a hit.
MEASUREMENT_TYPE: growth inhibition (%)
Value expressed in %; do not type the unit.

N#Cc1cc([N+](=O)[O-])ccc1NC(=O)/C(=N\NC(=O)c1ccncc1)C(c1cnc2ccc([N+](=O)[O-])cc2n1)[N+](=O)[O-] (stereo unspecified) :: -11.1

Please fill in: growth inhibition reported for `Cc1nc(SCC(=O)Nc2ccc(Cl)cc2)c2sc(=S)n(-c3ccccc3)c2n1` = -1.25

Please fill in: growth inhibition reported for OC1[C@H](O)CN(OCc2ccccc2)C[C@@H]1O (stereo partly specified) = -15.1

Please fill in: growth inhibition reported for CC(O)CN1c2ccccc2Sc2ccc(Cl)cc21 (stereo unspecified) = 3.35

Please fill in: growth inhibition reported for `Cc1cc(C)cc(N)c1` = -5.1

Please fill in: growth inhibition reported for COc1cc2c(cc1OC)C1CCN3CCCC3N1CC2 (stereo unspecified) = 0.1

Please fill in: growth inhibition reported for `N#Cc1c(N)c(C(=O)O)nn(-c2cccc(C(F)(F)F)c2)c1=O` = 44

Please fill in: growth inhibition reported for CC1(C)OCC(C(O)C2OC(C)(C)OC2/C=N\O)O1 (stereo unspecified) = -0.2

Please fill in: growth inhibition reported for `Cc1ccc(CC(=O)N(C)C)c([N+](=O)[O-])c1` = -1

Please fill in: growth inhibition reported for `CC(C)NC(N)=O` = 26.4

Please fill in: growth inhibition reported for `Cc1ccccc1Nc1nc2ccccc2nc1NS(=O)(=O)c1ccccc1` = 5.85

Please fill in: growth inhibition reported for `CCc1nc(=S)c2cnn(-c3ccccc3)c2[nH]1` = 11.2

Please fill in: growth inhibition reported for `Cc1ccc(N=C(NN(C)C)C(c2ccccc2)c2ccccc2)cc1` = 7.95

Please fill in: growth inhibition reported for `CN(C)C=S` = -9.85

Please fill in: growth inhibition reported for `O=NNc1nc2ncccc2cc1-c1ccccc1Cl` = -5.9

Please fill in: growth inhibition reported for `c1ccc(-c2nc3ccccc3o2)cc1` = 26.9

Please fill in: growth inhibition reported for C/C=C(\C)C(C#N)(CCCC)C(=O)OCC (stereo unspecified) = -6.35

Please fill in: growth inhibition reported for `Nc1c(-c2ccccc2[N+](=O)[O-])nc2ccccn12` = -49.3
